Test system: HCT-15
Test: Cytotoxicity against multidrug-resistant human HCT15 cells at 1 uM by thymidine incorporation assay
Assay type: functional
Peptide text beside a SMILES is read from it.
This section presents compounds with their documented inhibition at 1 µM values.

- compound: "CC(C)C[C@@H]1NC(=O)[C@H](C(C)C)NC(=O)[C@H](CC(C)C)NC(=O)[C@@H](CC(C)C)N(C)C(=O)[C@H](Cc2ccccc2)NC1=O (HELM PEPTIDE1{[CC(C)C[C@H](C(=O)[*:2])N(C)[*:1]].L.V.L.F}$PEPTIDE1,PEPTIDE1,1:R1-5:R2$$$V2.0)"
  inhibition at 1 µM: "48%"
- compound: "CC(C)C[C@@H]1NC(=O)[C@H](CC(C)C)NC(=O)[C@@H](Cc2c[nH]c3ccccc23)NC(=O)[C@H](CC(C)C)NC(=O)[C@H](C(C)C)NC1=O (HELM PEPTIDE1{L.L.V.L.[dW]}$PEPTIDE1,PEPTIDE1,1:R1-5:R2$$$V2.0)"
  inhibition at 1 µM: "9%"

The origin of these recorded values is ChEMBL document CHEMBL1140733.
